Tested on: NCI-H441
experiment-summary: Antiproliferative activity against human NCI-H441 cells after 72 hrs by MTT assay
Type: functional, cell-based
run-parameters: NCI-H441, 72 h
Rule: measured IC50 below 2000 nM gets true (1); anything equal to or greater than 2000 nM gets false (0).

Example results:
{"columns": ["smiles-code", "classification"],
 "data": [
  ["CCOC(=O)N1CCN(/[N+]([O-])=N/Oc2cc(OC)c([N+](=O)[O-])cc2[N+](=O)[O-])CC1", "false (0)"],
  ["CCOC(=O)N1CCCN(/[N+]([O-])=N/Oc2cc(OC)c([N+](=O)[O-])cc2[N+](=O)[O-])CC1", "false (0)"],
  ["CCOC(=O)N1CCN(/[N+]([O-])=N/Oc2ccc([N+](=O)[O-])cc2[N+](=O)[O-])CC1", "true (1)"]
]}

Moving on to the next molecule.
Hello, is IC50 of the following molecule strictly smaller than 2000 nM? CCOC(=O)N1CCN(/[N+]([O-])=N/Oc2cc(C)c([N+](=O)[O-])cc2[N+](=O)[O-])CC1
true (1)
